- subject of test: hCB1 receptor (Homo sapiens, UniProt P21554)
- Sequence (P21554 whole entry): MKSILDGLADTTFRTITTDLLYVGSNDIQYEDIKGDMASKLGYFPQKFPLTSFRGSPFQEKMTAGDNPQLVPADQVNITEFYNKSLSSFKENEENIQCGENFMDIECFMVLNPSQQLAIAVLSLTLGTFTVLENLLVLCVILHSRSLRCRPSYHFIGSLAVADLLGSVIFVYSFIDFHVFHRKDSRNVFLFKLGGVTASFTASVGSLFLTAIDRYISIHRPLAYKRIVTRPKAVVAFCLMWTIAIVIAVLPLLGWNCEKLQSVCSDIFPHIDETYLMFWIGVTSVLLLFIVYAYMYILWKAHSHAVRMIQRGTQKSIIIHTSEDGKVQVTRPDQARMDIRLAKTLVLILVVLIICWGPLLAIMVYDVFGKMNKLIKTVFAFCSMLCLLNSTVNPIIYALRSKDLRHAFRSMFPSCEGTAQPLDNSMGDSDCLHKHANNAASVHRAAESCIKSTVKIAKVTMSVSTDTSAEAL
- protocol notes: AequoScreen hCB1 receptor assay (flash luminescence, recombinant CHO-K1 cells)
- run parameters: EC50, 8 concentrations 20 µg/mL to 76 or 9.5 ng/mL; normalized to JWH-018 between runs

compound | EC50
O=C(c1cccc2ccccc12)c1cn(CCCCCF)c2cc(O)ccc12 [6-OH indole AM-2201] | 0.122 µM
O=C(c1cccc2ccccc12)c1nn(CCC(O)CCF)c2ccccc12 (centres unmarked) [3-OH-pentyl THJ-2201] | 0.159 µM
O=C(c1cccc2ccccc12)c1nn(CCCCCO)c2ccccc12 [5-OH pentyl THJ-018] | 0.274 µM
CCCCCn1cc(C(=O)c2cccc3ccccc23)c2ccccc21 [JWH-018, reference compound] | 0.0424 µM
O=C(c1cccc2ccccc12)c1cn(CCCC(O)CF)c2ccccc12 (centres unmarked) [4-OH pentyl AM-2201] | 0.0636 µM

###

- subject of test: hCB1 receptor (Homo sapiens)
- protocol notes: AequoScreen hCB1 receptor assay (flash luminescence, recombinant CHO-K1 cells)
- run parameters: hydroxyindole metabolites versus AM-2201 or JWH-018
Examples of molecules with documented Potency retained, % of the potency of the parent follow.
measured endpoint: Potency retained, % of the potency of the parent (%)

molecule | subject of test | result
CCCCCn1cc(C(=O)c2cccc3ccccc23)c2cc(O)ccc21 [5-OH indole JWH-018] | hCB1 receptor (Homo sapiens) | 4
CCCCCn1cc(C(=O)c2cccc3ccccc23)c2c(O)cccc21 [4-OH indole JWH-018] | hCB1 receptor (Homo sapiens) | 51
CCCCCn1cc(C(=O)c2cccc3ccccc23)c2ccc(O)cc21 [6-OH indole JWH-018] | hCB1 receptor (Homo sapiens) | 4
O=C(c1cccc2ccccc12)c1cn(CCCCCF)c2cccc(O)c12 [4-OH indole AM-2201] | hCB1 receptor (Homo sapiens) | 83

###

- subject of test: hCB1 receptor (Homo sapiens)
- protocol notes: AequoScreen hCB1 receptor assay (flash luminescence, recombinant CHO-K1 cells)
- run parameters: CHO-K1, read-out: Efficacy (% JWH-018 activity), Emax, Emax from dose-response curves, normalized to JWH-018 at 20 µg/mL; triplicates
The threshold is inclusive: Emax of exactly 90% counts as class 1; values below receive class 0.

compound | class assignment
O=C(c1cccc2ccccc12)c1cn(CC(O)CCCF)c2ccccc12 (centres unmarked) | class 1
O=C(c1cccc2ccccc12)c1cn(CCCCCF)c2cc(O)ccc12 | class 1
O=C(c1cccc2ccccc12)c1cn(CCC(O)CCF)c2ccccc12 (centres unmarked) | class 1
O=C(O)CCCCn1nc(C(=O)c2cccc3ccccc23)c2ccccc21 | class 0
O=C(c1cccc2ccccc12)c1nn(CCCCCO)c2ccccc12 | class 0
O=C(c1cccc2ccccc12)c1cn(CCCCCF)c2ccc(O)cc12 | class 1
O=C(c1cccc2ccccc12)c1nn(CC(O)CCCF)c2ccccc12 (centres unmarked) | class 0
CC(O)CCCn1nc(C(=O)c2cccc3ccccc23)c2ccccc21 (centres unmarked) | class 1

###

Examples of compounds with documented log10 EC50 follow.
- subject of test: hCB1 receptor (Homo sapiens, UniProt P21554)
- protocol notes: AequoScreen hCB1 receptor assay (flash luminescence, recombinant CHO-K1 cells)
- run parameters: EC50, 8 concentrations 20 µg/mL to 76 or 9.5 ng/mL; normalized to JWH-018 between runs
measured endpoint: log10 EC50 (log10 of the value in nM)

compound | log10 EC50
O=C(c1cccc2ccccc12)c1cn(CCC(O)CCF)c2ccccc12 (centres unmarked) | 2.34
CCC(O)CCn1nc(C(=O)c2cccc3ccccc23)c2ccccc21 (centres unmarked) | 2.31
O=C(c1cccc2ccccc12)c1cn(CCCCCO)c2ccccc12 | 2.25
CCCC(O)Cn1cc(C(=O)c2cccc3ccccc23)c2ccccc21 (centres unmarked) | 2.88
CCCCCn1cc(C(=O)c2cccc3ccccc23)c2ccc(O)cc21 | 2.66
CCCC(O)Cn1nc(C(=O)c2cccc3ccccc23)c2ccccc21 (centres unmarked) | 3.05
CC(O)CCCn1nc(C(=O)c2cccc3ccccc23)c2ccccc21 (centres unmarked) | 2.24
O=C(c1cccc2ccccc12)c1nn(CC(O)CCCF)c2ccccc12 (centres unmarked) | 2.61
O=C(c1cccc2ccccc12)c1cn(CCCCCF)c2ccc(O)cc12 | 2.49
CCC(O)CCn1cc(C(=O)c2cccc3ccccc23)c2ccccc21 (centres unmarked) | 3.55
CCCCCn1cc(C(=O)c2cccc3ccccc23)c2c(O)cccc21 | 1.92
CCCCCn1cc(C(=O)c2cccc3ccccc23)c2cc(O)ccc21 | 3.05
O=C(c1cccc2ccccc12)c1cn(CCCCCF)c2c(O)cccc12 | 2.45
CC(O)CCCn1cc(C(=O)c2cccc3ccccc23)c2ccccc21 (centres unmarked) | 2.46
CCCCCn1nc(C(=O)c2cccc3ccccc23)c2ccccc21 [THJ-018, reference compound] | 1.69
O=C(c1cccc2ccccc12)c1nn(CCCC(O)CF)c2ccccc12 (centres unmarked) | 1.14
O=C(c1cccc2ccccc12)c1cn(CC(O)CCCF)c2ccccc12 (centres unmarked) | 2.57

Values were extracted from paper PMC12932713.
